protocol: Solubility test, equilibrium method, UV-visible spectrophotometry
Type: physicochemical
measurement_conditions: water, thermodynamic from solid; read-out: Solubility in Water
Structures can show the parent of a compound that is named as a salt.
reported_metric: solubility (µg/mL)
Numbers only, in µg/mL.

{"compound": "CCc1c2c(nc3ccc(OC(=O)N4CCC(N5CCCCC5)CC4)cc13)-c1cc3c(c(=O)n1C2)COC(=O)[C@]3(O)CC [CPT-11, Irinotecan hydrochloride, reference compound]", "value_observed": 6300}

Please give solubility, item by item, for the list that follows.
1. CCc1c2c(nc3ccc(OC(=O)NCCCCCOCc4cn([C@H]5O[C@@H](CO)[C@H](O)[C@@H](O)[C@@H]5O)nn4)cc13)-c1cc3c(c(=O)n1C2)COC(=O)[C@]3(O)CC
2. CCc1c2c(nc3ccc(OC(=O)NCCOCCOCc4cn([C@H]5O[C@@H](CO)[C@H](O)[C@@H](O)[C@@H]5O)nn4)cc13)-c1cc3c(c(=O)n1C2)COC(=O)[C@]3(O)CC
3. CCc1c2c(nc3ccc(OC(=O)NCCCOCc4cn(CCO[C@H]5O[C@@H](CO)[C@H](O)[C@@H](O)[C@@H]5O)nn4)cc13)-c1cc3c(c(=O)n1C2)COC(=O)[C@]3(O)CC

[reply]
1: 1050; 2: 3580; 3: 985
